- Measured Target: human mGlu3 (Homo sapiens)
- Construct: expressed in transfected cells; host or cells: HEK-293
- Sequence (Q14832 23-879): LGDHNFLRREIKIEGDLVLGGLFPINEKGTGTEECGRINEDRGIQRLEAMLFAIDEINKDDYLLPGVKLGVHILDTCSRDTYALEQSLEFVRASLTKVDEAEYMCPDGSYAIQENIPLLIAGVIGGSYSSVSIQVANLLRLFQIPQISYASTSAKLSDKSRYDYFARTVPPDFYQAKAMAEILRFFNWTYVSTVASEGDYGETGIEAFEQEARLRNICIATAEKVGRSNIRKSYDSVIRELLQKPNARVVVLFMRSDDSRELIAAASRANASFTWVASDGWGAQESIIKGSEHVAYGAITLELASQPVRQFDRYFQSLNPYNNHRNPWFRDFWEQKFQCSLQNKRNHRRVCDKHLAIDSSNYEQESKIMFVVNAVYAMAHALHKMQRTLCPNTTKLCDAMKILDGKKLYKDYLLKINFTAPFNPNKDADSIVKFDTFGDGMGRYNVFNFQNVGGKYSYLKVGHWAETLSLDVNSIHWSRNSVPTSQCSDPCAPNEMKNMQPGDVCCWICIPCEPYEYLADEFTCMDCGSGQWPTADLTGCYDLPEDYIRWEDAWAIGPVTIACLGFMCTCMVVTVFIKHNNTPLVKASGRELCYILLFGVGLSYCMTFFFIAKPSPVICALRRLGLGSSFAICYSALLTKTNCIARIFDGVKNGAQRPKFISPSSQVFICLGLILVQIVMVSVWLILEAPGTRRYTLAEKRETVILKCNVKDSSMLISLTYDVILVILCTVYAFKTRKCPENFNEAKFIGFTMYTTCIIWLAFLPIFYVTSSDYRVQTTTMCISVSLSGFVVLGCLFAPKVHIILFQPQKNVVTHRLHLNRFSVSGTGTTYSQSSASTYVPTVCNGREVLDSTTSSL
- Assay Summary: mGlu3 GIRK cell-based thallium flux assay
- Experimental Setup: HEK-293 co-expressing human mGlu3 and GIRK; EC80 glutamate
Measured Quantity: Human mGlu3 GIRK IC50

> print(dat)
                        structure.as.smiles       val
1  Cc1nc(COc2cc3n[nH]c(=O)n3cc2-c2ccc(F)cc2)cs1  Inactive
2  COc1ccc(-c2cn3c(=O)[nH]nc3cc2OCc2ccn(C)n2)cc1  Inactive
3  Cc1csc(COc2cc3n[nH]c(=O)n3cc2-c2ccc(F)cc2)n1  Inactive

----------
- Measured Target: human mGlu2 (Homo sapiens, UniProt Q14416)
- Sequence (Q14416 19-872): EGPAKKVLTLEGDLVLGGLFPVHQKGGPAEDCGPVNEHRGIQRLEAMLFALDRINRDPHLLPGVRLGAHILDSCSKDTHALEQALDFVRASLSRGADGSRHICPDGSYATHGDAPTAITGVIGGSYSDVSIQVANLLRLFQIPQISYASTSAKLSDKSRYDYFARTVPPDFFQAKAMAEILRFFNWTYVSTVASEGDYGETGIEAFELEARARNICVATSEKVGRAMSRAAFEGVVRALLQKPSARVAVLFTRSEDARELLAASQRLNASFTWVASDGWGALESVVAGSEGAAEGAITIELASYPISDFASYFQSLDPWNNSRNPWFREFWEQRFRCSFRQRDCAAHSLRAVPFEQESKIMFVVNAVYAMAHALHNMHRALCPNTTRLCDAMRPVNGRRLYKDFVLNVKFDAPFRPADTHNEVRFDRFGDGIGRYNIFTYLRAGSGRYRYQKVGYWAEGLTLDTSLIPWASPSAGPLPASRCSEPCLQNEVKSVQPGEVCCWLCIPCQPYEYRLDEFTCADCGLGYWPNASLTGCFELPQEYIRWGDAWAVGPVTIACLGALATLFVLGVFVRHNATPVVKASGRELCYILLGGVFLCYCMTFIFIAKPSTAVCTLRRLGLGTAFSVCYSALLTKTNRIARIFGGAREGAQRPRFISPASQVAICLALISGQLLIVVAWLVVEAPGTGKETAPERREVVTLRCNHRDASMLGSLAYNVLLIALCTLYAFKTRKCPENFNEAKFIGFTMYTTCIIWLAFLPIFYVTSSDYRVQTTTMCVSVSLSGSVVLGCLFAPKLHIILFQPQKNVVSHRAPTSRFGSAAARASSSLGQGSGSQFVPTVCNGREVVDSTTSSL
pIC50: −log10 of the molar value.
Measured Quantity: pIC50

> print(dat)
                        structure.as.smiles  measured.quantity   val
1  Cc1nc(COc2cc3n[nH]c(=O)n3cc2-c2ccc(F)cc2)cs1              pIC50  6.98
2  COc1ccc(-c2cn3c(=O)[nH]nc3cc2OCc2nccn2C)c(F)c1              pIC50  6.67
3  Cn1ccc(COc2cc3n[nH]c(=O)n3cc2-c2ccc(F)cc2)n1              pIC50  6.11
4  COc1ccc(-c2cn3c(=O)[nH]nc3cc2OCc2ccn(C)n2)c(F)c1              pIC50  7.05
